ASSAYED SYSTEM: E. coli DNA gyrase (Escherichia coli, UniProt P0AES4+P0AES6)
Sequence (P0AES4 whole entry, one chain of several): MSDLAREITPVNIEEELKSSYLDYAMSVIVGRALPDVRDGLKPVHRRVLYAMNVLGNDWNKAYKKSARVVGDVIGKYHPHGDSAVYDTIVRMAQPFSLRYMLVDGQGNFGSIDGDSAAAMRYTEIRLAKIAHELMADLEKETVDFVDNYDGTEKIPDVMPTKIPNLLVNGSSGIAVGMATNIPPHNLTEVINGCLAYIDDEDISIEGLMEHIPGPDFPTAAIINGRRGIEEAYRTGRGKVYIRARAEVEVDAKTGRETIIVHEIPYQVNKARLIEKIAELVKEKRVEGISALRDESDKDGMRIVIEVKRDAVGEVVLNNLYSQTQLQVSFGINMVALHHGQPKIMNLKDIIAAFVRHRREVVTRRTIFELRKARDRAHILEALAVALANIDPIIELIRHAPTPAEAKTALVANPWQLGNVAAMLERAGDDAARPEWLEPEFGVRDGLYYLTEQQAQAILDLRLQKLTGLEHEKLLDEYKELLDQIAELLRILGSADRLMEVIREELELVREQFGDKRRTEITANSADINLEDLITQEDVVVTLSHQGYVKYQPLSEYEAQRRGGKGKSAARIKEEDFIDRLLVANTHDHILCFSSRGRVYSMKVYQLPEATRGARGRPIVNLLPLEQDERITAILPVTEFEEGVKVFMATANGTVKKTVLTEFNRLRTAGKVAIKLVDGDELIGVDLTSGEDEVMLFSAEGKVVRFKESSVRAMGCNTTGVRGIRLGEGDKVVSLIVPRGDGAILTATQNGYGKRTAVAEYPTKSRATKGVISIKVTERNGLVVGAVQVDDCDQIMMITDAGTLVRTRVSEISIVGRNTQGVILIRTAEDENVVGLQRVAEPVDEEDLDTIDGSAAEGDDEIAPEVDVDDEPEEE
ASSAY PROTOCOL: E. coli DNA gyrase supercoiling assay
pIC50: −log10 of the molar value.
Threshold check on pIC50: at or above 7 gives satisfied, strictly below gives not satisfied.

COMPOUND: Cc1[nH]c(C(=O)Nc2nc3c(OCc4ccccc4)cc(C(=O)NCCOCCN4CCN(c5cc6c(cc5F)c(=O)c(C(=O)O)cn6C5CC5)CC4)cc3s2)c(Cl)c1Cl.Cl [Compound 11b]
CATEGORY: satisfied
//
COMPOUND: Cc1[nH]c(C(=O)Nc2nc3ccc(C(=O)N4CCN(c5cc6c(cc5F)c(=O)c(C(=O)O)cn6C5CC5)CC4)cc3s2)c(Cl)c1Cl
CATEGORY: not satisfied
//
COMPOUND: Cc1[nH]c(C(=O)Nc2nc3c(OCc4ccccc4)cc(C(=O)N4CCN(c5cc6c(cc5F)c(=O)c(C(=O)O)cn6C5CC5)CC4)cc3s2)c(Cl)c1Cl
CATEGORY: not satisfied

====

Tested on: E. coli BW25113 WT
ASSAY PROTOCOL: MIC, E. coli BW25113 wild-type
Type: cell-based
CONDITION SET: Escherichia coli, BW25113, read-out: Minimum Inhibitory Concentration E. coli BW# WT; molar conversion in parentheses

CPD SMILES: Cc1[nH]c(C(=O)Nc2nc3c(OCc4ccccc4)cc(C(=O)N4CCN(c5cc6c(cc5F)c(=O)c(C(=O)O)cn6C5CC5)CC4)cc3s2)c(Cl)c1Cl
MIC: > 81 µM

CPD SMILES: Cc1[nH]c(C(=O)Nc2nc3ccc(C(=O)NCC(=O)N4CCN(c5cc6c(cc5F)c(=O)c(C(=O)O)cn6C5CC5)CC4)cc3s2)c(Cl)c1Cl
MIC: > 86.4 µM

CPD SMILES: Cc1[nH]c(C(=O)Nc2nc3ccc(C(=O)NCCC(=O)N4CCN(c5cc6c(cc5F)c(=O)c(C(=O)O)cn6C5CC5)CC4)cc3s2)c(Cl)c1Cl
MIC: > 84.8 µM

====

Tested on: E. cloacae spp. cloacae ATCC 13047
ASSAY PROTOCOL: MIC broth microdilution, E. cloacae
Assay type: cell-based, Enterobacter cloacae
CONDITION SET: Enterobacter cloacae, ATCC13047, read-out: MIC E. cloacae spp. cloacae ATCC #; broth microdilution, 18 h

MOLECULE: Cc1[nH]c(C(=O)Nc2nc3ccc(C(=O)NCCC(=O)N4CCN(c5cc6c(cc5F)c(=O)c(C(=O)O)cn6C5CC5)CC4)cc3s2)c(Cl)c1Cl [Compound 7b]
MIC: > 64 µg/mL
//
MOLECULE: Cc1[nH]c(C(=O)Nc2nc3ccc(C(=O)O)cc3s2)c(Cl)c1Cl [Compound 1a, reference compound]
MIC: > 64 µg/mL
//
MOLECULE: Cc1[nH]c(C(=O)Nc2nc3ccc(C(=O)N4CCN(c5cc6c(cc5F)c(=O)c(C(=O)O)cn6C5CC5)CC4)cc3s2)c(Cl)c1Cl [Compound 3a]
MIC: 4 µg/mL

====

ASSAYED SYSTEM: E. coli DNA gyrase (Escherichia coli, UniProt P0AES4+P0AES6)
ASSAY PROTOCOL: E. coli DNA gyrase supercoiling assay
Experimental: The assay for determination of the IC50 values was performed according to previously reported procedures. Briefly, inhibitory activities were determined using supercoiling (for DNA gyrase) and relaxation (for topoisomerase IV) assay kits (Inspiralis, Norwich, UK) on streptavidin-coated 96-well microtiter plates from Thermo Scientific Pierce (Thermo Fisher Scientific, Waltham, MA, USA). […]

COMPOUND: Cc1[nH]c(C(=O)Nc2nc3ccc(C(=O)NCCOCCN4CCN(c5cc6c(cc5F)c(=O)c(C(=O)O)cn6C5CC5)CC4)cc3s2)c(Cl)c1Cl.Cl [Compound 11a]
IC50 / nM: 130
//
COMPOUND: Cc1[nH]c(C(=O)Nc2nc3ccc(C(=O)NCCC(=O)N4CCN(c5cc6c(cc5F)c(=O)c(C(=O)O)cn6C5CC5)CC4)cc3s2)c(Cl)c1Cl
IC50 / nM: 130
//
COMPOUND: Cc1[nH]c(C(=O)Nc2nc3ccc(C(=O)NCC(=O)N4CCN(c5cc6c(cc5F)c(=O)c(C(=O)O)cn6C5CC5)CC4)cc3s2)c(Cl)c1Cl
IC50 / nM: 92
